Values compiled from PubChem BioAssay (Tox21).

# experimental_protocol: cAMP Responsive Elements (CRE) small molecule antagonists, cell-based qHTS assay: qHTS cell viability counter screen (AID 2060913); note: nearly all actives have a fitted effect of over 40% in size
# conditions_used: CRE-bla HEK293T viability, CellTiter-Glo luminescence, 5 h; series mostly up to 92.4 µM
Results filed as inconclusive are left out. Activity calls are given as the source filed them. Calls come from the whole dose curve; as a rule, active = well fitted cell-killing curve with a large enough effect in the repeat runs; inconclusive = weak or mixed curves, or effect the other way; inactive = flat fitted curve, though single readings scatter.
assay_endpoint: viability change, negative = cytotoxic

Examples from the recorded data:
CC1(C)OC[C@@H]2O[C@@]3(C(=O)O)OC(C)(C)O[C@H]3[C@@H]2O1 : inactive
O=C(NCC1CCCCN1)c1cc(OCC(F)(F)F)ccc1OCC(F)(F)F (stereo not given) : inactive
CC(C)(Oc1ccc(Cl)cc1)C(=O)OCCCOC(=O)C(C)(C)Oc1ccc(Cl)cc1 : inactive
CCCCCCCCCCCCCCCC(=O)NCCO : inactive
COCCOCCOCCOCCOC : inactive
CC(C)(C)c1ccc(CCC=O)cc1 : inactive
C/C(=C1\CCOC(=O)S1)N(C=O)Cc1cnc(C)nc1N : inactive
C=C(C)C(=O)OCCCCCCCCCC : inactive
Nc1nc(N)c2nc(-c3ccccc3)c(N)nc2n1 : inactive
CCCc1ncc(C(=O)O)s1 : inactive

We now examine a further compound.
Q: I'd like to know its viability change, negative = cytotoxic. The compound in question is "COc1cc(C)ccc1O"
Ans: inactive
